B1: Azoarcus group I ribozyme (parent)
chain: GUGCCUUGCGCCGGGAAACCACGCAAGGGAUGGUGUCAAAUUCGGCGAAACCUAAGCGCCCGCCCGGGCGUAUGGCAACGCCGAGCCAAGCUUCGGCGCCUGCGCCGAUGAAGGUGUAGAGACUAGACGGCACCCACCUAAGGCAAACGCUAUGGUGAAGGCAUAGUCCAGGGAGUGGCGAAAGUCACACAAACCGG

Variants of: B1
Assay Name: reverse-splicing fitness (ratio to wild type); higher = more active; in vitro selection; Mg2+ level not given
Measurement Label: reverse-splicing fitness

* C82A A120U A145C C169G U176A | 0.00227
* C82U A111C A120C A145U C150G C169U U176C | 0.0132
* C82G A111G A120U C150G C169A U176A | 0.00788
* C82U A111C A120C A145G C150A C169A U176G | 0.00718
* A111C A120U C150U U176G | 0.0367
* C82U A111G A120G A145C C150G C169A U176G | 0.00439
* C82A A120U A145U U176G | 0.01
* C82U A120C A145C C150A U176A | 0.00873
* C82G A111U A120U A145G C150A | 0.0109
* C82U A111C A120U A145G C150U C169G U176G | 0.0025
* C82U A120C A145U C150A C169U | 0.00769
* C82U A111U C150G C169U U176G | 0.00604
* C82A A111U A120U A145G C150G C169A | 0.00923
* C82A A111G A145U C150U C169G | 0.00926
* C82U A111G A120C A145U C150A C169G U176C | 0.0112
* C82G A111G A120C A145G C150G C169G U176G | 0.00653
* C82U A111C A145G C150A C169A U176G | 0.00838
* A111C A120G A145G C150G C169A U176G | 0.00703
* A111C A145U U176A | 0.424
* A120C A145C C150G C169U | 0.117
* C82G A111G A145C C150G U176C | 0.0294
* C82G A111U A120G A145U C150A U176C | 0.0173

The values you see were collected from the RNAGym collection of RNA variant scans (doi:10.1093/molbev/msab373).
